target: protein-protein interaction between SOS1 and KRAS G12C (Homo sapiens, UniProt P01116, C118S/C51S/C80L/G12C); construct: His6 (N); assay: KRAS::SOS1 AlphaScreen binding assay; conditions: Table 36
Sequence (P01116 1-169 isoform P01116-2 G12C/C51S/C80L/C118S): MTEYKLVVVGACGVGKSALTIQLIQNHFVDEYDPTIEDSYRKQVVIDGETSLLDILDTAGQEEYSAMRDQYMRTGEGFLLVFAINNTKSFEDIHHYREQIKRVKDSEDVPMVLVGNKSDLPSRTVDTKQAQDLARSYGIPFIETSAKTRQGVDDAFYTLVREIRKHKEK
assay endpoint: IC50 (nM)

Consider the following illustrative entries.
molecule: C=CC(=O)N1CCN(c2cc(-c3noc([C@@]4(C)CCCc5sc(N)c(C#N)c54)n3)nc(N3CCN(C)CC3)c2)CC1 [Ia-116]
observed value: 31
--
molecule: C=CC(=O)N1CCN(c2cc(-c3noc(C4(C)CCCc5sc(N)c(C#N)c54)n3)nc(N3CCN(C(C)C)C(C)C3)c2)CC1 (centres unmarked) [Ia-150]
observed value: 71

[a] C=CC(=O)N1CCC2(CCN(c3cc(-c4noc([C@@]5(C)CCCc6sc(N)c(C#N)c65)n4)nc(N4CCCN(C)C[C@@H]4C)n3)C2)C1 (some centres unmarked) [Ia-96]
[b] C=CC(=O)N1C[C@@H]2CN(c3cc(-c4noc(C5(C)CCCc6sc(N)c(C#N)c65)n4)nc(N4CCN(C5CCCC5)CC4)c3)[C@@H]2C1 (some centres unmarked) [Ia-9]
[c] C=CC(=O)N1CCN(c2cc(-c3noc(C4(C)CCCc5sc(N)c(C#N)c54)n3)nc(N3CCN(C4CCCC4)CC3)c2)CC1 (centres unmarked) [Ia-147]
Provide the items ranked by increasing IC50. Response format: the labels, sorted as the prompt asks. c, b, a

[I] C=CC(=O)N1CCCN(c2cc(-c3noc([C@@]4(C)CCCc5sc(N)c(C#N)c54)n3)nc(O[C@@H](C)[C@@H]3CCCN3C)n2)[C@@H](C)C1 [Ia-58]
[II] C=CC(=O)N1CCN(c2cc(-c3noc(C4(C)CCCc5sc(N)c(C#N)c54)n3)nc(N3CCC(N4CCCC4)C3)c2)CC1 (centres unmarked) [Ia-23]
Could you tell me which of these two has the smaller IC50 figure? First: I Second: II Answer = label. II

[A] C=CC(=O)N1CCN(c2cc(-c3noc([C@@]4(C)CCCc5sc(N)c(C#N)c54)n3)nc(OC3(CN4CCCC4)CC3)n2)CC1 [Ia-67]
[B] C=CC(=O)N1CCN(c2cc(-c3noc(C4(C)CCCc5sc(N)c(C#N)c54)n3)nc(N3CCN(C)CC34CC4)c2)CC1 (centres unmarked) [Ia-25]
[C] C=CC(=O)N1CCN(c2cc(-c3noc(C4(C)CCCc5sc(N)c(C#N)c54)n3)nc(N3CCC(N4CC[C@@H](F)C4)CC3)c2)CC1 (some centres unmarked) [Ia-39]
[D] C=CC(=O)N1CCN(c2cc(O[C@@H](C)[C@@H]3CCCN3C)nc(-c3noc([C@@]4(C)CCCc5sc(N)c(C#N)c54)n3)n2)CC12CC2 [Ia-77]
Provide the items ranked by increasing IC50. Response format: the labels, sorted as the prompt asks. D, C, A, B

[A] C=CC(=O)N1CCN(c2cc(O[C@@H](C)[C@@H]3CCCN3C)nc(-c3noc([C@@]4(C)CCCc5sc(N)c(C#N)c54)n3)c2)CC1 [Ia-26]
[B] C=CC(=O)N1CCN(c2cc(OC3CCN(C)CC3)nc(-c3noc(C4(C)CCCc5sc(N)c(C#N)c54)n3)c2)CC1 (centres unmarked) [Ia-118]
Quick check, higher IC50 between A and B ? Answer = label. B
(B: 21 nM, A: 1.9 nM)

[P] C=CC(=O)N1CCCC(Oc2cc(-c3noc(C4(C)CCCc5sc(N)c(C#N)c54)n3)nc(N3CCN(C)CC3)c2)CC1 (centres unmarked) [Ia-145]
[Q] C=CC(=O)N1CCC(Oc2cc(-c3noc(C4(C)CCCc5sc(N)c(C#N)c54)n3)nc(N3CCN(C)CC3)c2)CC1 (centres unmarked) [Ia-141]
Could you tell me which of these two has the smaller IC50 figure? First: P Second: Q Answer = label. Q
(Q: 71 nM, P: 377 nM)

[a] C=CC(=O)N1CCN(c2cc(-c3noc([C@@]4(C)CCCc5sc(N)c(C#N)c54)n3)nc(OC[C@@H]3CC4(CC4)CN3C)n2)CC1 [Ia-72]
[b] C=CC(=O)N1CCN(c2cc(-c3noc(C4(C)CCCc5sc(N)c(C#N)c54)n3)nc(N3CCN(C)C[C@@H]3CC)c2)CC1 (some centres unmarked) [Ia-15]
[c] C=CC(=O)N1CCN(c2cc(-c3noc([C@@]4(C)CCc5sc(N)c(C#N)c54)n3)nc(N[C@@H](C)[C@@H]3CCCN3C)n2)CC1 [Ia-132]
[d] C=CC(=O)N1CCN(c2cc(-c3noc(C4(C)CCc5sc(N)c(C#N)c54)n3)nc(O[C@@H](C)[C@@H]3CCCN3C)n2)CC1 (some centres unmarked) [Ia-134]
Rank by IC50 (largest to smallest). Response format: the labels, sorted as the prompt asks. c, b, a, d
